tested system: furin (UniProt P09958 108-715)
Sequence (P09958 108-715): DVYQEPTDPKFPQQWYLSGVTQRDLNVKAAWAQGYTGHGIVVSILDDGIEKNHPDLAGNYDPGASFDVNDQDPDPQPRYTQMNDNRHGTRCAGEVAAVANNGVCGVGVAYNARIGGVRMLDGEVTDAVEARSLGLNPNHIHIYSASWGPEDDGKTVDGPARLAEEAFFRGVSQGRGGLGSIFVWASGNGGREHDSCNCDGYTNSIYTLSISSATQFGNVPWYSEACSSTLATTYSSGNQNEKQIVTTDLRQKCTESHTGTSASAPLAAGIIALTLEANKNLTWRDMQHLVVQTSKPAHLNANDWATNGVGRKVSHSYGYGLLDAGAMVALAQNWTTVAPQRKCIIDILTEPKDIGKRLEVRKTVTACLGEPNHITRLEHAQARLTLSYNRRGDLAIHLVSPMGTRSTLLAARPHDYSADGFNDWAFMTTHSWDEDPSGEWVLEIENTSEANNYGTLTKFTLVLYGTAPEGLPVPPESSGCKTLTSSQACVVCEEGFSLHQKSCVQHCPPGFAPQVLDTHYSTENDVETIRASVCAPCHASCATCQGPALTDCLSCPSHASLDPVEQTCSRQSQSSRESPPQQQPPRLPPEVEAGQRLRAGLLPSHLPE
No end group written: not given here.
recorded endpoint: Ki (µM)
Give bare numbers, in µM.

Prompt: Which Ki is listed for LLRVKR-NH2 [LLRVKR-NH2] ?
Completion: 0.54

Let us move to another entry and its Ki.
Prompt: Which Ki is listed for LLLLRVKR-NH2 [LLLLRVKR-NH2] ?
Completion: 1.14
